The reported numbers originate from ChEMBL document CHEMBL1961873.

- System: Platelet-derived growth factor receptor alpha (Homo sapiens), P16234 [T674I]
- Sequence (P16234 whole entry T674I): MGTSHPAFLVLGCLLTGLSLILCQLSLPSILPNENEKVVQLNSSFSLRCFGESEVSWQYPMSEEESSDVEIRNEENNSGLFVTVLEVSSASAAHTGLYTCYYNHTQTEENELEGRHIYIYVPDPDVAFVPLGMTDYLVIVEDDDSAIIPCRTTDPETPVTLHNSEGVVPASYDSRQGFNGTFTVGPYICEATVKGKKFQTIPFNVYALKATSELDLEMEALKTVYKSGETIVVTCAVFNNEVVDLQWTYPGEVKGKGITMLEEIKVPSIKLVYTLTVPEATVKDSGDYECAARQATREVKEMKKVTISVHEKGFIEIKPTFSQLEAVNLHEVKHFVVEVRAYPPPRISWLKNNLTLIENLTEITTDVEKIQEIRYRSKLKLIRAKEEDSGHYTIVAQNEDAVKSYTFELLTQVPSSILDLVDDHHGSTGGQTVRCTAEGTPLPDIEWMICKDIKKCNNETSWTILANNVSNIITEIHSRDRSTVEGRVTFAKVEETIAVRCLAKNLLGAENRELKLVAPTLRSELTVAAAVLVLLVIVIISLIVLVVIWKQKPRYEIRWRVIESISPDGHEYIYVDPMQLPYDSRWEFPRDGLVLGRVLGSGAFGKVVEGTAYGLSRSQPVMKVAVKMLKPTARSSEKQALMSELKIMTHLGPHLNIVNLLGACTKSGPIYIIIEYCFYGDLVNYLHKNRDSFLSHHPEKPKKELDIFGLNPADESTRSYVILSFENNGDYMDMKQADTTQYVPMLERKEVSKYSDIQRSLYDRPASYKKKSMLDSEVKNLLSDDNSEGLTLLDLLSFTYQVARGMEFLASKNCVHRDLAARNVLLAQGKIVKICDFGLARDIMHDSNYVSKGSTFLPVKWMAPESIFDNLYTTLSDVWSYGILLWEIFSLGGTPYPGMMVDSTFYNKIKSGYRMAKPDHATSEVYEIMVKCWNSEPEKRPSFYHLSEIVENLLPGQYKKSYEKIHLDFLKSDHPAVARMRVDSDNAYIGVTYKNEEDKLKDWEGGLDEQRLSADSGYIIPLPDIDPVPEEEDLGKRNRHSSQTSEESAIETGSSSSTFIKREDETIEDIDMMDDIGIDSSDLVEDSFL
- measurementContext: at 0.1 µM
// reported inhibition for each item listed
Form entry: value (%) — number only.

Sample records with inhibition:
COc1cc(Nc2ncc(-c3ccccc3)o2)cc(OC)c1: 19.5
N#Cc1cccc(Nc2ncc(-c3ccccc3)o2)c1: 6.26

Request: I am curious: what inhibition value has been reported for COc1cccc(-n2ncc3c(N/N=C/c4ccc(C(=O)NCCN(C)C)cc4)ncnc32)c1 ?
Result: 20.5

Request: Same read-out for CS(=O)(=O)CCNCc1ccc(-c2ccc3ncnc(Nc4ccc(OCc5cccc(C(F)(F)F)c5)cc4)c3c2)o1 ?
Result: 5.53

Request: Same read-out for O=C1Nc2ccccc2/C1=C1\CCc2cc(O)ccc21 ?
Result: 45.7
